Provenance of the data: patent US20070117743A1

Test system: PANC-1
ASSAY_COMMENT: SRB colorimetric assay of cell growth and viability, PANC-1
Format: cell-based, human
MEASUREMENT_CONDITIONS: 48 hours exposure, SRB
Where a SMILES comes first, the peptide text is derived from it. Bridges are numbered along the chain shown (N, C = ends). [ ]: non-standard residue; d: D form. The star is where a group is joined. d(aIle) = CC[C@H](C)[C@@H](N)C(=O)O; d(aThr) = C[C@@H](O)[C@@H](N)C(=O)O; Hexanoyl(5-Me) = CC(C)CCCC(=O)*; Orn = NCCC[C@H](N)C(=O)O; Dhb = C/C=C(\N)C(=O)O
OBSERVED_PROPERTY: TGI PANC-1 (Molar)
Give the value, in units of Molar, as a plain number.

| MOLECULE | OBSERVED_PROPERTY | RESULT_VALUE |
| --- | --- | --- |
| C/C=C1\NC(=O)[C@H](Cc2ccccc2)NC(=O)[C@@H](C(C)C)NC(=O)[C@@H]([C@@H](C)CC)NC(=O)[C@H](NC(=O)[C@H](NC(=O)[C@H](CCCN)NC(=O)[C@H]2CCCN2C(=O)[C@H](NC(=O)[C@@H](NC(=O)[C@H](CCC(N)=O)NC(=O)CCCC(C)C)C(C)C)C(C)C)[C@@H](C)CC)[C@@H](C)OC(=O)[C@H](C(C)C)NC1=O [Compound 58, [Gln^12, noD-Val^13]-KF] ({Hexanoyl(5-Me)}-QV[dV][dP][Orn][d(aIle)][d(aThr)][d(aIle)][dV]F[Dhb]V; ester 7-C) | TGI PANC-1 | 7.11E−06 |

Data request: What value of measured TGI PANC-1 is listed for C/C=C1\NC(=O)[C@H](Cc2c[nH]c3ccccc23)NC(=O)[C@@H](C(C)C)NC(=O)[C@@H]([C@@H](C)CC)NC(=O)[C@H](NC(=O)[C@H](NC(=O)[C@H](CCCN)NC(=O)[C@H]2CCCN2C(=O)[C@H](NC(=O)[C@@H](NC(=O)[C@@H](NC(=O)[C@H](NC(=O)CCCC(C)C)C(C)C)[C@@H](C)O)C(C)C)C(C)C)[C@@H](C)CC)[C@@H](C)OC(=O)[C@H](C(C)C)NC1=O [Compound 68, [Trp^3]-KF] ({Hexanoyl(5-Me)}-[dV]TV[dV][dP][Orn][d(aIle)][d(aThr)][d(aIle)][dV]W[Dhb]V; ester 8-C) ?
Data returned: 6.59E−06
